Source of measurements: PubChem BioAssay (EPA / NIEHS)

STUDY_SYSTEM: human Ephrin type-B Receptor 2 (EphB2), EPHB2 (gene 2048) (UniProt P29323)
Sequence (P29323 whole entry, looked up): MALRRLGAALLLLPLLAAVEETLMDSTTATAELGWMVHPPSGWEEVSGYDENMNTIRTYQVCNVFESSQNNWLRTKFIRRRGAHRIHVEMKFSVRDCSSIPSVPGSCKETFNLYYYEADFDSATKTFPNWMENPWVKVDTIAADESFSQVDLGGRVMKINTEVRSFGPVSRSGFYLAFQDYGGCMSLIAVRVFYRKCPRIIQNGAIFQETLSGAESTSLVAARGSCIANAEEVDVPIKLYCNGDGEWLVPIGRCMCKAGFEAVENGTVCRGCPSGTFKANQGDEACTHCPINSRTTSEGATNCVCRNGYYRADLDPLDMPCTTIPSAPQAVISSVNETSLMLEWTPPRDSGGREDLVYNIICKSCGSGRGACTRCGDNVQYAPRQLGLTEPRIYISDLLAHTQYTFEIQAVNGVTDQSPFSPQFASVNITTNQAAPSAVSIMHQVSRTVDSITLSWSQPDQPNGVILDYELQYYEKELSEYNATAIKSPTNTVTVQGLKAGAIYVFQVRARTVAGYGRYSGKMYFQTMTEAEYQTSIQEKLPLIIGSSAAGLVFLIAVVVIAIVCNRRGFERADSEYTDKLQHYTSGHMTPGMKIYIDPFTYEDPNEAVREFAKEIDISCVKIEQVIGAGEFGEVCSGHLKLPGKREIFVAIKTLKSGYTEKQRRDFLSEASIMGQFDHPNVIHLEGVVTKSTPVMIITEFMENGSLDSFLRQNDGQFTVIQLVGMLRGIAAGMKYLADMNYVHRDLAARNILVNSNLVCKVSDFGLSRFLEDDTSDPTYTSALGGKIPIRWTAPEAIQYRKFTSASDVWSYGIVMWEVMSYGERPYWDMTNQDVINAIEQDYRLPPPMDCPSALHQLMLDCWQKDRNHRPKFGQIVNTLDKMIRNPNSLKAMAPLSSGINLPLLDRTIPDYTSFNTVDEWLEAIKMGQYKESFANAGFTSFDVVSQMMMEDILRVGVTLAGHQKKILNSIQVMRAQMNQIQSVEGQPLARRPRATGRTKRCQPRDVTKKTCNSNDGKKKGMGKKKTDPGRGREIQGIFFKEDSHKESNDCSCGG
TEST_METHOD_NOTES: NVS_ENZ_hEphB2: NovaScreen (NVS) Enzymatic Assay for human Ephrin type-B Receptor 2 (EphB2) (AID 2283156)
Results filed as inconclusive are left out. Active and inactive are the calls of the source. How the source made its calls: active means hit-call score of the fitted dose curve at least 0.9, where 1 is the maximum; inconclusive means response in the unintended direction; inactive means score below 0.9.
MEASUREMENT_LABEL: AC50

Some entries whose results are on file:
CCOC(=O)CC(CC(=O)OCC)(OC(C)=O)C(=O)OCC :: inactive
CCCCCCCC/C=C\CCCCCCCC(=O)OC[C@@H](O)[C@H]1OC[C@H](O)[C@H]1O :: 6.52 µM (active)
Oc1ccc(C(c2ccc(O)cc2)C(Cl)(Cl)Cl)cc1 :: inactive
CC(C)(c1ccc(O)cc1)c1ccc(O)cc1 :: inactive
CCCCCCC(C)OC(=O)COc1nc(F)c(Cl)c(N)c1Cl (configuration not stated) :: inactive

IN: // map `COCCO` to recorded AC50 (system: human Ephrin type-B Receptor 2 (EphB2), EPHB2 (gene 2048) (UniProt P29323))
OUT: inactive

IN: // map `Cc1ccc(N)cc1O` to recorded AC50 (system: human Ephrin type-B Receptor 2 (EphB2), EPHB2 (gene 2048) (UniProt P29323))
OUT: inactive

---

TEST_METHOD_NOTES: UKN5_HCS_SBAD2_cell_viability: Viability Assessment in the University of Konstanz (UKN) Leist Lab Neurite Outgrowth Assay in human iPSC-derived immature Dorsal Root Ganglia Neurons (UKN5) (AID 2284056)
Method: UKN5_HCS_SBAD2 is a cell-based, multiplexed-readout assay screening for neurite outgrowth and cell viability that uses SBAD2 (peripheral neurons differentiated from iPSC), a human peripheral nervous system cell line, with measurements taken at […] after chemical dosing in a microplate: 96-well plate. […] Following 24 hr chemical exposures in multi-well plates, neurite area is evaluated as a marker of neurite outgrowth using high-content imaging of cells stained with calcein-AM. […]
The source made the active and inactive calls. The calls were made as follows: active = hit-call score of the fitted dose curve at least 0.9, where 1 is the maximum; inactive = score below 0.9.
I would appreciate it if you answered using one of these outcomes: active, inactive

O=C1N[C@@H]2C(=C[C@H](O)[C@@H](O)[C@H]2O)c2cc3c(c(O)c21)OCO3 :: active
CN1CC=C(c2ccccc2)CC1 :: inactive
Brc1ccc(Oc2cc(Br)c(Br)cc2Br)c(Br)c1 :: inactive
COC(=O)[C@H]1[C@@H](OC(=O)c2ccccc2)C[C@@H]2CC[C@H]1N2C :: inactive

IN: Check the results log: what was the call for `[CH3][Hg][Cl]` ?
OUT: active

IN: Check the results log: what was the call for `O=[As](O)(O)O` ?
OUT: active

IN: Check the results log: what was the call for CNC1(c2ccccc2Cl)CCCCC1=O (configuration not stated) ?
OUT: inactive

IN: Check the results log: what was the call for `CN1CC[C@]23c4c5ccc(O)c4O[C@H]2[C@@H](O)C=C[C@H]3[C@H]1C5` ?
OUT: inactive

IN: Check the results log: what was the call for `C/C(=C/C=C/[C@@H](C)C(=O)O)[C@H]1CN[C@H](C(=O)O)[C@H]1CC(=O)O` ?
OUT: inactive

IN: Check the results log: what was the call for CNC(C)Cc1ccc2c(c1)OCO2 (configuration not stated) ?
OUT: inactive

IN: Check the results log: what was the call for `[CH3][Sn]([CH3])([CH3])[Cl]` ?
OUT: active

IN: Check the results log: what was the call for `CN[C@@H](C)Cc1ccccc1` ?
OUT: inactive

---

STUDY_SYSTEM: Myc proto-oncogene protein (Homo sapiens) (UniProt P01106)
Sequence (P01106 whole entry, looked up): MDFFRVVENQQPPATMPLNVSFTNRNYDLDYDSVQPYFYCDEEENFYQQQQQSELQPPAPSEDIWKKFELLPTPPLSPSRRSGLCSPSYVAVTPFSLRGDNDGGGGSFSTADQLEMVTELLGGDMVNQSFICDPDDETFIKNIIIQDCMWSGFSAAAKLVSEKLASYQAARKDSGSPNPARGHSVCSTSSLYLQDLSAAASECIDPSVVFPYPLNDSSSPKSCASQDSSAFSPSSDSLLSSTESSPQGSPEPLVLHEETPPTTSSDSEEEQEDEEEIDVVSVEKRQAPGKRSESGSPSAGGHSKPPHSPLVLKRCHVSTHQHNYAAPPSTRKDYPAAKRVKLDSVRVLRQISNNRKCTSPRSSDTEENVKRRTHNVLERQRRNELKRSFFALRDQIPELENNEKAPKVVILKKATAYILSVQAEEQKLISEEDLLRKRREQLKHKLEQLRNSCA
TEST_METHOD_NOTES: ATG_Myc_CIS: Attagene CIS-FACTORIAL HepG2 Assay for human Myelocytomatosis (Myc) Proto-Oncogene Transcription Factor (AID 2282990)
APPLIED_CONDITIONS: HepG2, Attagene cis-reporter transcription factor activity; actives raise or lower the signal
Activity calls are given as the source filed them. The calls were made as follows: active = hit-call score of the fitted dose curve at least 0.9, where 1 is the maximum; inactive = score below 0.9.
I would appreciate it if you answered using one of these outcomes: 1 (active), -1 (inactive)

IN: Check the results log: what was the call for `Nc1ccc([N+](=O)[O-])cc1N` ?
OUT: -1

IN: Check the results log: what was the call for `Cc1cc(C)c(C2=C(OC(=O)CC(C)(C)C)C3(CCCC3)OC2=O)c(C)c1` ?
OUT: 1

IN: Check the results log: what was the call for `[Cl][Sb]([Cl])[Cl]` ?
OUT: 1

IN: Check the results log: what was the call for `CCCCCCCCCCCC#N` ?
OUT: -1

IN: Check the results log: what was the call for `COc1ncc(F)c2nc(S(=O)(=O)Nc3c(F)cccc3F)nn12` ?
OUT: -1

IN: Check the results log: what was the call for `SCc1ccco1` ?
OUT: -1

IN: Check the results log: what was the call for `CCOC(=O)NC(=S)Nc1ccccc1NC(=S)NC(=O)OCC` ?
OUT: -1

IN: Check the results log: what was the call for `Nc1ccc(-c2ccc(N)c(N)c2)cc1N` ?
OUT: -1

IN: Check the results log: what was the call for O=CNC(N1CCN(C(NC=O)C(Cl)(Cl)Cl)CC1)C(Cl)(Cl)Cl (centres undefined) ?
OUT: -1

---

STUDY_SYSTEM: Transcription factor Sp1 (Homo sapiens)
TEST_METHOD_NOTES: ATG_Sp1_CIS: Attagene CIS-FACTORIAL HepG2 Assay for human Specificity Protein 1 (Sp1) (AID 2282961)
APPLIED_CONDITIONS: HepG2 Sp1 cis-reporter transcription, actives raise or lower the signal
Activity calls are given as the source filed them. The calls were made as follows: active = hit-call score of the fitted dose curve at least 0.9, where 1 is the maximum; inactive = score below 0.9.
I would appreciate it if you answered using one of these outcomes: active, inactive

Known results for compounds:
Cl/C=C\CCl :: inactive
CC(C)(C)C(=O)CCl :: inactive
C=CC(=O)OC :: inactive

# evaluate next
IN: Check the results log: what was the call for `N#Cc1cccc(C#N)c1` ?
OUT: inactive

---

TEST_METHOD_NOTES: CCTE_Mundy_HCI_iCellGluta_NOG_NeuronCount: CCTE's Neurite Outgrowth Assay in iCellGluta cells for Neuron Count, Mundy Lab (AID 2284340);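 further: cells fixed about 48 h after compound addition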
Records with an inconclusive call do not appear. Calls of active or inactive are those of the source. Rule for the calls: active = hit-call score of the fitted dose curve at least 0.9, where 1 is the maximum; inconclusive = response in the unintended direction; inactive = score below 0.9.
I would appreciate it if you answered using one of these outcomes: true for active, false for inactive

Known results for molecules:
CCOP(=O)(OCC)SCSCC :: false
[Cd+2].[Cl-].[Cl-] :: true
CCOP(=O)(Oc1cnc(C(C)(C)C)nc1)OC(C)C (stereo unspecified) :: false
CC1(C)[C@H](C=C(Cl)Cl)[C@@H]1C(=O)O[C@@H](C#N)c1cccc(Oc2ccccc2)c1 :: false
CC1(C)C(C=C(Cl)c2ccc(Cl)cc2)C1C(=O)OC(C#N)c1ccc(F)c(Oc2ccccc2)c1 (stereo unspecified) :: false

IN: Check the results log: what was the call for `C#CCN(C)[C@H](C)Cc1ccccc1` ?
OUT: false

---

Read-out: Monokine induced gamma interferon (MIG), CXCL9 (gene 4283)
TEST_METHOD_NOTES: BSK_hDFCGF_MIG: BioMAP Diversity Plus: hDFCGF Assay for Monokine induced gamma interferon (MIG) Biomarker Activity (AID 2283063)
APPLIED_CONDITIONS: primary human foreskin fibroblasts; actives raise or lower the signal
Activity calls are given as the source filed them. Rule for the calls: active = hit-call score of the fitted dose curve at least 0.9, where 1 is the maximum; inactive = score below 0.9.
MEASUREMENT_LABEL: AC50

C=CC(=O)OCC(CC)CCCC (stereo not drawn) :: 30.5 µM (active)
CC(C)(C)C(O)C(Oc1ccc(-c2ccccc2)cc1)n1cncn1 (stereo not drawn) :: inactive
CC(C)CCCCCCCOC(=O)c1ccccc1C(=O)OCCCCCCCC(C)C :: inactive

---

TEST_METHOD_NOTES: BSK_SAg_Proliferation: Cell Proliferation Assessment in the BioMAP Diversity Plus: SAg Assay (AID 2283095);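 further: relative cell number as total protein by SRB absorbance in sub-confluent culture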
APPLIED_CONDITIONS: primary human HUVEC with PBMC
The source made the active and inactive calls. Rule for the calls: active = hit-call score of the fitted dose curve at least 0.9, where 1 is the maximum; inactive = score below 0.9.
I would appreciate it if you answered using one of these outcomes: label 1 for active, label 0 for inactive

CCC(C)c1cc([N+](=O)[O-])cc([N+](=O)[O-])c1OC(=O)C=C(C)C (centres undefined) :: label 1
Nc1ccc(-c2ccc(N)c(N)c2)cc1N :: label 0
CCCOC(=O)c1ccccc1C(=O)OCCC :: label 0
O=[N+]([O-])c1ccc(Cl)cc1 :: label 0
CNC(=O)Oc1cc(C)c(SC)c(C)c1 :: label 0
O=S(=O)(c1ccccc1)c1ccccc1 :: label 0
COC(C)(C)CCC[C@H](C)C/C=C/C(C)=C/C(=O)OC(C)C :: label 1
C=CCN(CC=C)C(=O)C(Cl)Cl :: label 0
CC(C)CCCCCCCOP(=O)(Oc1ccccc1)Oc1ccccc1 :: label 1
CC(C)CCCCCCCOC(=O)c1ccccc1C(=O)OCCCCCCCC(C)C :: label 0

IN: Check the results log: what was the call for `N#CCCCCC#N` ?
OUT: label 0

IN: Check the results log: what was the call for `CC(C)(C)C(=O)CCl` ?
OUT: label 1

IN: Check the results log: what was the call for `c1ccc(Nc2ccc3ccccc3c2)cc1` ?
OUT: label 0

IN: Check the results log: what was the call for `O=c1[nH]c(Cl)c(Cl)cc1Cl` ?
OUT: label 0
